# TESTED_SYSTEM: human Mac-1 (integrin αMβ2, CD11b/CD18) (human, UniProt P11215 17-1152; P05107 23-769)
# ASSAY_NAME: flow cytometry, HEK293/Mac-1 cells, PBS/MnCl2 (Mn2+), 10 µg/ml of this antibody; binding of reporter mAb m24 read
# Protocol: The HEK293/Mac-1 cells (clone1-4) were counted and washed twice with staining buffer (PBS containing 1% FBS, and 0.1% sodium azide). […] After washing with the staining buffer, the cells were analyzed by flow cytometry. […] After washing with the staining buffer, the cells were analyzed by flow cytometry. TABLE IV The anti-Mac-1 antibody can serve as an antagonist to reduce the conformational change of Mac-1. […] Binding of KIM127 or m24 was detected using flow cytometry.
METRIC_NAME: m24 (Expression relative to IgG4)

Solved entries:
INSERT INTO assay_data (binder, result) VALUES
  ('anti-Mac-1 antibody clone 28E07-HH (antibody, human IgG4, V domains shown) VH: QVQLVQSGAEVKKPGASVKVSCKASGYSFTDYNMNWVRQAPGQGLEWMGEINPGYGTSRYNQKFKDRVTMTRDTSISTAYMELSRLRSDDTAVYYCARADVDYGDVMDYWGQGTLVTVSS VL: EIVLTQSPATLSLSPGERATLSCSASSSVSYMHWYQQKPGQAPRLLIYDTSKLASGIPARFSGSGSGTDFTLTISSLEPEDFAVYYCQQWSSNPPTFGQGTKLEIK', '0.75 relative to IgG4'),
  ('anti-Mac-1 antibody clone 28A12 (antibody, human IgG4, V domains shown) VH: QVKLQESGPELVKPGASVKISCKASGYSFTDYNMNWVKQSNGKSLEWIGEINPGYGTSRYNQKFKDKATLTVDQSSSTAYMQLNSLTSEDSAVYYCARADVDYGDTMDYWGQGTTVTVSS VL: DIELTQSPAIMSASPGEKVTMTCSASSSVSDMHWYQQKSGNSPKRWIYDTSKLASGVPVRFSGSGSGTSYSLTISSMEAEDAATYYCQQWSSNPPTFGAGTKLELK', '1.07 relative to IgG4');

Recall and state the measured m24 (Expression relative to IgG4) for anti-Mac-1 antibody clone 27A04 (antibody, human IgG4, V domains shown) VH: QVKLQQSGPELVKPGASVKISCKASGYSFTDYNMNWVKQSNGKSLEWIGVINPNYGTTSYNQKFKGKATLTVDQSSSTAYMQLNSLTSEDSAVYYCARTYDYDGDAFAYWGQGTTVTVSS VL: DIELTQSPAIMSASPGEKVTMTCSASSSVSYMHWYQQKSGTSPKRWIYDTSKLASGVPARFSGSGSGTSYSLTISSMEAEDAATYYCQQWSSNPPTFGAGTKLELK . 0.88 relative to IgG4
